Origin of the recorded values: patent US11377425B1

- studySystem: UniProt Q16552
- testDetails: IL-8 release assay in human epithelial keratinocytes adult (HEKa)
- recordedConditions: HEKa cells, 3 ng/mL HEK-human IL-17AA + 10 ng/mL human TNFalpha; read-out: Rel EC50 IL-8 release assay
pEC50: −log10 of the molar value.
parameter: pEC50

Query :: Consider the compound `Cc1n[nH]c(C)c1-c1ccc(NC(=O)[C@@H](NC(=O)c2ccn[nH]2)C(C2CC2)C2CC2)cc1` and give its measured pEC50.
Result :: 6.00 to 7.00

Query :: Again, but for `Cc1n[nH]c(C)c1-c1ccc(NC(=O)[C@@H](NC(=O)c2csc3ccccc23)C2CCCCC2)cc1`
Result :: 6.00 to 7.00

Query :: Item: Cc1cnn(C)c1-c1ccc(NC(=O)[C@@H](NC(=O)c2ccnn2C(C)CO)C(C2CC2)C2CC2)cc1O (some centres unmarked)
Result :: 6.00 to 7.00

Query :: Next: `CC(C)[C@H](NC(=O)OC(C)(C)C)C(=O)Nc1ccc(-c2cncn2C)cc1`
Result :: < 6.00

Query :: What do we get for CC(C)n1nccc1C(=O)NC(C(=O)Nc1ccc(-c2c(C3CC3)n[nH]c2C2CC2)cc1)C(C1CC1)C1CC1 (single isomer, unassigned) [Example 384] ?
Result :: 6.00 to 7.00

Query :: How about this compound: `CCn1nncc1C(=O)N[C@H](C(=O)Nc1ccc(-c2c(C)n[nH]c2C)cc1)C(C1CC1)C1CC1`
Result :: 6.00 to 7.00

Query :: Proceed to `Cc1n[nH]c(C)c1-c1ccc(NC(=O)[C@@H](NC(=O)c2ccnn2C(C)C)[C@H]2CCOc3c(F)cc(F)cc32)cc1`
Result :: > 7.00

Query :: Follow-up item: CCn1nccc1C(=O)NC(C(=O)Nc1ccc(-c2c(C)n[nH]c2C)cc1)C1CCCCCCC1 (single isomer, unassigned) [Example 155]
Result :: > 7.00

Query :: Same again, this time with `Cc1n[nH]c(C)c1-c1ccc(NC(=O)[C@@H](NC(=O)c2cnc3ccccn23)C2CCCCC2)cc1`
Result :: 6.00 to 7.00

Query :: Can you handle `CCn1nccc1C(=O)N[C@H](C(=O)Nc1ccc(-c2c(C3CC3)n[nH]c2C)cc1)C(C1CC1)C1CC1` next?
Result :: > 7.00

Query :: Check CCn1nccc1C(=O)N[C@H](C(=O)Nc1ccc(-c2c(C)n[nH]c2C)cc1)C(C)C1CCC1 (single isomer, unassigned) [Example 192] too.
Result :: > 7.00

Query :: Subsequent entry: `CCc1n[nH]c(CC)c1-c1ccc(NC(=O)[C@@H](NC(=O)c2ccnn2CCCO)C(C2CC2)C2CC2)cc1`
Result :: > 7.00

Query :: One more compound: `Cc1n[nH]c(N)c1-c1ccc(NC(=O)[C@@H](NC(=O)c2ccnn2C)C(C2CCC2)C2CCC2)cc1`
Result :: > 7.00

Query :: Proceed to CCC(c1ccccc1)C(NC(=O)c1ccnn1C)C(=O)Nc1ccc(-c2c(C)n[nH]c2C)cc1 (single isomer, unassigned) [Example 227]
Result :: < 6.00

----------
A collection of compounds and their measured pEC50
- studySystem: human IL-17AA (Homo sapiens, UniProt Q16552)
- testDetails: IL-8 release assay in human epithelial keratinocytes adult (HEKa)
- recordedConditions: HEKa cells, 3 ng/mL HEK-human IL-17AA + 10 ng/mL human TNFalpha; read-out: Rel EC50 IL-8 release assay
- Method: Example 138: IL-8 Release Assay in Human Epithelial Keratinocytes Adult (HEKa) Keratinocytes were seeded at 3500 cells/well in 384-well ViewPlates (Perkin Elmer) in Epilife medium (Thermo Fisher) containing human keratinocyte growth supplement (HKGS) without hydrocortisone and incubated in a humid incubator at 37° C. 5% CO2, overnight. […] IL-8 released from the cells was measured by the use of a commercial homogenous time-resolved fluorescence (HTRF) assay (CisBio). […]
pEC50: −log10 of the molar value.

- compound: "Cc1n[nH]c(C)c1-c1ccc(NC(=O)C(NC(=O)c2ccnn2C(C)C)C(C2CC2)C2CC2)cc1 (single isomer, unassigned) [Example 33]"
  parameter: "pEC50"
  measured: "< 6.00"
- compound: "CCn1nncc1C(=O)N[C@H](C(=O)Nc1ccc(-c2c(C)n[nH]c2C)cc1)C(C1CCC1)C1CCC1"
  parameter: "pEC50"
  measured: "> 7.00"
- compound: "Cc1n[nH]c(C)c1-c1ccc(NC(=O)[C@@H](NC(=O)c2ccnn2C)C2C[C@@H](C)C[C@@H](C)C2)cc1 (single isomer, unassigned) [Example 268]"
  parameter: "pEC50"
  measured: "> 7.00"

Now for a further compound.
Query :: So what does the record say about pEC50 for `Cc1cnn(C)c1-c1ccc(NC(=O)[C@@H](NC(=O)c2ccnn2C(C)C)C(C2CC2)C2CC2)cc1` ?
Result :: > 7.00

----------
- studySystem: human IL-17AA (Homo sapiens, UniProt Q16552)
- Sequence (Q16552 24-155): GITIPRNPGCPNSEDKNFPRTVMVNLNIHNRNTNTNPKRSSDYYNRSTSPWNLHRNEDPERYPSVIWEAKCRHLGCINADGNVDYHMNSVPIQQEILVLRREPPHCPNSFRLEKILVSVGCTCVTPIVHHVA
- testDetails: IL-8 release assay in human epithelial keratinocytes adult (HEKa)
- recordedConditions: HEKa cells, 3 ng/mL HEK-human IL-17AA + 10 ng/mL human TNFalpha; read-out: Rel EC50 IL-8 release assay
parameter: EC50

Would you please look over these solved cases?
- compound: "Cc1n[nH]c(C)c1-c1ccc(NC(=O)[C@@H](NC(=O)c2ccnn2C)C(c2ccccc2)c2ccccc2)cc1 [Example 2]"
  studySystem: "human IL-17AA (Homo sapiens, UniProt Q16552)"
  EC50: "0.1 to 1 µM"
- compound: "Cc1n[nH]c(C)c1-c1ccc(NC(=O)[C@@H](NC(=O)c2cnc(C)n2C)C2CCCCC2)cc1 [Example 48]"
  studySystem: "human IL-17AA (Homo sapiens, UniProt Q16552)"
  EC50: "> 1 µM"
- compound: "Cc1n[nH]c(C)c1-c1ccc(NC(=O)C(NC(=O)c2ccnn2CCC(C)O)C2CCCCCCC2)cc1 (single isomer, unassigned) [Example 143]"
  studySystem: "human IL-17AA (Homo sapiens, UniProt Q16552)"
  EC50: "0.1 to 1 µM"
- compound: "Cc1n[nH]c(C)c1-c1ccc(NC(=O)C(NC(=O)c2ccnn2C(C)C)C(C2CCC2)C2CCC2)cc1 (racemic) [Example 38]"
  studySystem: "human IL-17AA (Homo sapiens, UniProt Q16552)"
  EC50: "< 0.1 µM"

Query :: Please provide the recorded EC50 for Cc1n[nH]c(N)c1-c1ccc(NC(=O)[C@@H](NC(=O)c2ccnn2C)C2CCCCC2)cc1 [Example 449] , tested on human IL-17AA (Homo sapiens, UniProt Q16552).
Result :: 0.1 to 1 µM

Query :: Could you do the same for Cc1nccn1-c1ccc(NC(=O)[C@@H](NC(=O)c2ccnn2C)[C@@H]2CCCc3ccccc32)cc1 [Example 378] , please?
Result :: > 1 µM

Query :: Proceed to Cn1cncc1-c1ccc(NC(=O)C(NC(=O)c2ccnn2C)C(c2cccc(F)c2)c2cccc(F)c2)cc1 (single isomer, unassigned) [Example 374B]
Result :: > 1 µM

Query :: And then Cn1cncc1-c1ccc(NC(=O)[C@@H](NC(=O)c2ccnn2C)C(C2CCCCC2)C2CCCC2)cc1 (single isomer, unassigned) [Example 339B] , what is it?
Result :: 0.1 to 1 µM

Query :: Also need Cc1n[nH]c(C)c1-c1ccc(NC(=O)[C@@H](NC(=O)c2ccnn2CC(C)O)C(C2CC2)C2CC2)cc1 (stereo partly drawn) [Example 388] , thanks.
Result :: 0.1 to 1 µM

Query :: Also Cc1n[nH]c(C)c1-c1ccc(NC(=O)[C@@H](NC(=O)c2ccnn2C)C2C(C)(C)C2(C)C)cc1 [Example 245] ?
Result :: 0.1 to 1 µM

Query :: Now this one: Cc1n[nH]c(C)c1-c1ccc(NC(=O)[C@@H](NC(=O)c2ccnn2C)C(C)C2CCC2)cc1 (single isomer, unassigned) [Example 194]
Result :: < 0.1 µM

Query :: Moving on to the next compound: CCn1nccc1C(=O)N[C@H](C(=O)Nc1ccc(-c2c(C)n[nH]c2C)c(O)c1)[C@H]1CC[C@H](C)CC1 [Example 416]
Result :: < 0.1 µM

Query :: Also, Cn1cncc1-c1ccc(NC(=O)[C@H](Cc2ccccc2)NC(=O)OC(C)(C)C)cc1 [Example 95] please.
Result :: > 1 µM

Query :: Cool, now CCc1n[nH]c(CC)c1-c1ccc(NC(=O)[C@@H](NC(=O)c2ccnn2C(C)C)C(C2CC2)C2CC2)cc1 [Example 399]
Result :: < 0.1 µM

Query :: Same thing, different compound: Cn1cncc1-c1ccc(NC(=O)[C@@H](NC(=O)c2ccnn2C)C(c2ccccc2)c2ccccc2)cc1O [Example 420]
Result :: 0.1 to 1 µM

Query :: Now consider CC(C)C[C@H](NC(=O)OC(C)(C)C)C(=O)Nc1ccc(-c2cncn2C)cc1 [Example 96] .
Result :: > 1 µM

Query :: Next compound up: Cc1nn(COP(=O)(O)O)c(C)c1-c1ccc(NC(=O)[C@@H](NC(=O)c2ccnn2[C@@H](C)CO)C(C2CC2)C2CC2)cc1 [Example 483, phosphate]
Result :: < 0.1 µM

Query :: Cn1cncc1-c1ccc(NC(=O)[C@@H](NC(=O)OC2CC2)C2CCCCC2)cc1O [Example 422] ?
Result :: > 1 µM

Query :: # repeat for Cc1ncn(C)c1-c1ccc(NC(=O)[C@@H](NC(=O)c2ccnn2C)C2CCCCC2)cc1 [Example 337]
Result :: 0.1 to 1 µM

Query :: Also need Cc1n[nH]c(C)c1-c1ccc(NC(=O)[C@@H](NC(=O)c2ccnn2C(C)CCO)C(C2CC2)C2CC2)cc1 (single isomer, unassigned) [Example 226] , thanks.
Result :: < 0.1 µM

Query :: Next compound: Cc1n[nH]c(C)c1-c1ccc(NC(=O)[C@@H](NC(=O)c2ccnn2C)C2CCCCC2(C)C)cc1 (stereo partly drawn) [Example 230]
Result :: < 0.1 µM
